# procedureSummary: soluble on expression in E. coli; label from the status in PepcDB or PDB records
experimentalReadout: soluble on expression in E. coli

Check out these entries, answers already filled in.
>>> endpointvalue("PISNIFAGLLFYVLSDYVTEDTGIRITRAELEKTIVEHGGKLIYNVILKRHSIGDVRLISCKTTTECKALIDRGYDILHPNWVLDCIAYKRLILIEPNYCFNVSQKMRAVAEKRVDCLGDSFENDISETKLSSLYKSQLSLPPMGELEIDSEVRRFPLFLFSNRIAYVPRRKISTEDDIIEMKIKLFGGKITDQQSLCNLIIIPYTDPILRKDCMNEVHEKIKEQIKASDTIPKIARVVAPEWVDHSINENCQVPEEDFPVVNY")
"soluble"
>>> endpointvalue("MNHLLSMEHLSTDQIYKLIQKASQFKSGERQLPNFEGKYVANLFFENSTRTKCSFEMAELKLGLKTISFETSTSSVSKGESLYDTCKTLESIGCDLLVIRHPFNNYYEKLANINIPIANAGDGSGQHPTQSLLDLMTIYEEYGYFEGLNVLICGDIKNSRVARSNYHSLKALGANVMFNSPNAWIDDSLEAPYVNIDDVIETVDIVMLLRIQHERHGLAEETRFAADDYHQKHGLNEVRYNKLQEHAIVMHPAPVNRGVEIQSDLVEASKSRIFKQMENGVYLRMAVIDELLK")
"not soluble"
>>> endpointvalue("MGSDKIHHHHHHMKATSSFKGQTTGLYIVPTPIGNLEDMTYRAVRILQESDLVAAEDTRQTMKLFNHFKIETKLVSYHEHNKQVSGARLLADLHAGKQIALVSDAGMPGISDPGSDLIREAIAEDIPVIVLPGANAALTALVASGLATERFLYYGFLPRKKKERREALETVRYEKGSLIFYEAPHRLKEMLGALRDVLGDRQLTLARELTKRYEEYIRGSVTEALEWAEEEVRGEFVVIVEGSTEERPAEEEQKADPLQQIERYIEQGEKPNAALKRVAKERGLDRQELYLRYHES")
"not soluble"
>>> endpointvalue("MSLKTKQEIVENWLPRYTQRQLIDFEPYILLTNFSHYLHVFAEHYGVPIVGEHTSMPNASAEGVTLINFGMGSANAATIMDLLWAIHPKAVIFLGKCGGLKLENALGDYLLPIAAIRGEGTSNDYLPEEVPSLPSFSVLRAISSAIQNKGKDYWTGTVYTTNRRVWEYDEKFKDYLRSTHASGVDMETATLMTVGFANKIPMGALLLISDRPMFPEGVKTEESDQLVTDNFAEEHLMLGIDALEIIRENKSSIKHIRFNWEGHHHHHH")
"soluble"
>>> endpointvalue("MSQMELIKKLREATGAGMMDVKRALEDAGWDEEKAVQLLRERGAMKAAKKADREAREGIIGHYIHHNQRVGVLVELNCETDFVARNELFQNLAKDLAMHIAMMNPRYVSAEEIPAEELEKERQIYIQAALNEGKPQQIAEKIAEGRLKKYLEEVVLLEQPFVKDDKVKVKELIQQAIAKIGENIVVRRFCRFELGA")
"soluble"

Given item GTEDLYFQSHMTIAVTGSIATDHLMRFPGRFSEQLLPEHLHKVSLSFLVDDLVMHRGGVAGNMAFAIGVLGGEVALVGAAGADFADYRDWLKARGVNCDHVLISETAHTARFTCTTDVDMAQIASFYPGAMSEARNIKLADVVSAIGKPELVIIGANDPEAMFLHTEECRKLGLAFAADPSQQLARLSGEEIRRLVNGAAYLFTNDYEWDLLLSKTGWSEADVMAQIDLRVTTLGPKGVDLVEPDGTTIHVGVVPETSQTDPTGVGDAFRAGFLTGRSAGLGLERSAQLGSLVAVLVLESTGTQEWQWDYEAAASRLAGAYGEHAAAEIVAVLA , the value recorded as its soluble on expression in E. coli is soluble

sequence MGSDKIHHHHHHMTALDFLPNPPIKQELITPLFHLPYPNPSPIDPKVYKEQSNQAKALAQVFKKEEAHDFDYSSGSFLELFLALALEKKKLAIASSLHYNALKAAREVQKLGIEIFWLHPDVKSGVIEPNSLQEARTRGFELFFLPWANEDLLTLNPLESYGFSLDERLFVEASYPLALGIALPLLEKAHWLINGEILGIPRGYGAILGGEIPLHRPLMRANLFGVLHAALKAREILIENDDQKTLFYEHLSALLGENLSLFAPLKSCLPNALPLRFKGIRARSLIQALLLEKITSLNGQECLFGFSKPSSVLQSMGYDEDEARELLSVSFLPFGSIEELERIAKILALRYKQIHLYS , soluble on expression in E. coli observed: not soluble

---

# procedureSummary: soluble on expression in E. coli; label from the status in PepcDB or PDB records
experimentalReadout: soluble on expression in E. coli

Worked examples, 4 sequences total:
>>> endpointvalue("MVFGENALVLKHLGSNTKIHFNAFDALAGWKQEGLPPVEVPAAAQWKFRSKPSQQVILDYDYTFTTPYCGSEVVEKDKETVEAKANPKGEATLQWENCEDQIDLAALSLKEPILFYDEVVLYEDELADNGVSLLTVKVRVMPSSWFLLLRFWLRVDGVLMRLRETRMHYRFGEDEAPTVLRENCWREATFQSLSAKGYPVDLAVWSDPSSISQRLPVIKHTTQKLKIPSKV")
"not soluble"
>>> endpointvalue("MGSDKIHHHHHHMDEQLEQLMRQLSGLNEQVRNGAVYQSLGTRLGKLMDGIQRRRRTAVVLPDDQDGVKDVLAELRHQLEQNVPVTLTHEKLTLLTAHLSSTDMALRYQGINFTLYDALQQDALDSAQMAFLLDELSRPDALFSHILEPANTAVFGRSARVAMLAVILHFVTPDVQSHTPDLRRIVILAAMYLCLETDTRGFVNQHGWAHAFTAITDLLTVLAGTEALPRADKLFLMMTLLERVKRLNTPLIYGENDRMAMYLSELANRHQLYADTLLLSLKQWRQQVALHRRPDTIAGWNRFFNRKRLLDSLRLQSELPASLQKYLNSTIDFLG")
"not soluble"
>>> endpointvalue("MGSDKIHHHHHHMGVSHGYVIWPLGSVHLISAIHPDILEKLMTKTLLLYSTVDGQTLAICQRMQTVMTQAGEQVELLSLNDCSGDALTQVDRVLIGASIRYGKHRPELLSFTNTHQDLLNSKMNGFFTVNVVARKPEKNTPATNPYMIKFLQLSAWQPKVLGVFAGKIAYPKYGPFDRFMIRFIMWMTKGPTDTKGTFEFTDWNKVDEFAGSFVKQ")
"not soluble"
>>> endpointvalue("GLNFPTYDGKDRVVSLSEKNFKQVLKKYDLLCLYYHEPVSSDKVTQKQFQLKEIVLELVAQVLEHKAIGFVMVDAKKEAKLAKKLGFDEEGSLYILKGDRTIEFDGEFAADVLVEFLLDLIEDPVEIISSKLEVQAFERIEDYIKLIGFFKSEDSEYYKAFEEAAEHFQPYIKFFATFDKGVAKKLSLKMNEVDFYEPFMDEPIAIPNKPYTEEELVEFVKEHQRPTLRRLRPEEMFETWEDDLNGIHIVAFAEKSDPDGYEFLEILKQVARDNTDNPDLSILWIDPDDFPLLVAYWEKTFKIDLFRPQIGVVNVTDADSVWMEIPDDDDLPTAEELEDWIEDVLSGKINTEDDDEDDDDDDNSDEEDNDDSDDDDDE")
"soluble"

Would you kindly look at the next entry?
Short answer for GPGSMSGAGNLRSNRRREMDYMRLCNSTRKVYPSDTVAEFWVEFKGPEGTPYEDGTWMLHVQLPSDYPFKSPSIGFCNRILHPNVDERSGSVCLDVINQTWTPMYQLENIFDVFLPQLLRYPNPSDPLNVQAAHLLHADRVGFDALLREHVSTHATPQKALESIPEAYRPHDNTHEEEPDEANAKDTASDGPVNAGHSKGLTDSSVTPTEDHRVMHDDIAIDGDEDVEAEYEPEEIDL : soluble on expression in E. coli was soluble

---

# procedureSummary: soluble on expression in E. coli; label from the status in PepcDB or PDB records
experimentalReadout: soluble on expression in E. coli

Guide cases for soluble on expression in E. coli, answers given:
>>> endpointvalue("SYEQLKGEWNRKSPNLSKCGEELGRLKLVLLELNFLPTTGTKLTKQQLILARDILEIGAQWSILRKDIPSFERYMAQLKCYYFDYKEQLPESAYMHQLLGLNLLFLLSQNRVAEFHTELERLPAKDIQTNVYIKHPVSLEQYLMEGSYNKVFLAKGNIPAESYTFFIDILLDTIRDEIAGCIEKAYEKILFTEATRILFFNTPKKMTDYAKKRGWVLGPNNYYSFASQQQKPEDTTIPSTELAKQVIEYARQLEMIV")
"soluble"
>>> endpointvalue("MYSFTTERLMIRPLRAEDEVFYCQLYADSKVMENIGKTITKKQARQWFKRALKALSSPKKSVVTLAIVKKSTNNIIGIQALSWQNTTQILKPCSQKLVQAEIGIMLTTKAQGQGFGKEAIKALMAYGFVYHSLDRINAFYAKKNLASERLFNSLH")
"not soluble"
>>> endpointvalue("MKFTSLLTAGALASTLVSPAIMAADTASASLSDAQKKEIEKVIHDYLINNPEVLLEASQALQQKQQQNMQQQAQAAIQENAEQVFQGKLTTVGNPKGNVTLVEFFDYQCIHCKKMASTIENLVKKDSGLRVIYKEFPIFGKTSDLASRVALAAGMQGKYQAMHNALITIDKRLDEKTVMDAAKSIGLDMQKLKKDMDSQEVTDILDANRQLAEKLHLMGTPAFIIGSTPDGQYKKGSEISFIPGATSEQSLRELIKKAAGN")
"not soluble"
>>> endpointvalue("MLDLTTNPIDLTRALVDIESPSHYEKNIADAIEQALHAIDNVEVLRHGNTLVARTHRGLGERVILAGHIDTVPIADNVPSHMEGDVMFGCGTVDMKSGMAVYLHAFATLANHPALAKDLTVVCYEGEEVASEYNGLGHVQAAHPDWLSGDLALLGEPSGAVIEAGCQGTIRLRVTAHGVRAHSARSWLGDNAMHKLAPVITNIAQYHAQEMLVDGCLYHEGLNIVHCESGVATNTIPDEAWMFVNFRFAPNRSVDEALAHMLEVLDLPEGVTYDIDDAVPGARPGLDRPAAAALLEATGGKFRAKYGWTDVSRFSEIGVPAVNFGPGDPAYCHKKDEQCPVSMITEVSRTLVHYLTSTNSQTTGA")
"not soluble"
>>> endpointvalue("AIADTGELHDLTVKGAVVTQLERCEVACQRLFQNLALLGLELQNSESITEGVCDSKAASDLGSSVELLENEERALRLCVDRFVLELRQVENLAKTLDGIREEEERILSLEQRSIEQAERCFYLWNDAREMLRGTRLTSIKEVLESAARYPRIPSWTPLPTSN")
"soluble"
>>> endpointvalue("SNAMSTISRDSCPALRAGVRLQHDRARDQWVLLAPERVVELDDIALVVAQRYDGTQSLAQIAQTLAAEFDADASEIETDVIELTTTLHQKRLLRL")
"soluble"

// next item, soluble on expression in E. coli requested
Short answer for MSLDKPVLLLGEICVDFTLSTPMSSAKMRLGGVVHAARGLWALNVPYSVAAICPDYLVSEAEAYLYAHGCTNFIQVGTVLGAPNVFLIGDAREVGHQGYENILREAKKVLTFDLDEKLRGFKNIVVYPGTFDFEGIVKNLDSDAKITVDIAYDVNDADELSRVYGASHALAISTSSELFSSLALENLGPLLKACKTRSAKHLLLKENRGGSRLFDLESGESWEIPATLARTVNSVGVGDVYTAVFAALIDHGALTAALRGMQAATRYAQTTFPDDFKRDVQRDEGHHHHHH : soluble on expression in E. coli was not soluble
